Below, each entry is listed with its recorded EC50.
Tested on: HCV genotype 1a H77 NS3-5B bicistronic subgenomic replicon
Test: microbe, parasite or virus in culture
Assay type: cell-based
Settings: Hepatitis C virus; Table 2; luciferase activity after 48 hours; read-out: HCV Genotype 1A Replicon EC50
Where a name gives a salt, the structure may show the parent alone.
parameter: EC50 (nM)

1. CCCOC(=O)C(c1cc(-c2ccc(OCCC)cc2C(F)(F)F)no1)n1cc2nc(-c3cccc(F)c3F)nc-2cn1 (stereo not shown) :: 20
2. CCCOc1ccc(-c2cc(C(C(=O)OCCC(=O)O)n3cc4nc(-c5cccc(F)c5F)nc-4cn3)on2)c(C(F)(F)F)c1 (stereo not shown) [Compound 16, sodium salt] :: 32
3. CCCOc1ccc(-c2cc(C(C(=O)OCCOCCOCCO)n3cc4nc(-c5cccc(F)c5F)nc-4cn3)on2)c(C(F)(F)F)c1 (stereo not shown) :: 21
4. CCCCOC(=O)C(c1cc(-c2ccc(OCCC)cc2C(F)(F)F)no1)n1cc2nc(-c3cccc(F)c3F)nc-2cn1 (stereo not shown) :: 11
5. CCCOc1ccc(-c2cc(C(C(=O)OCCCCN(C)C)n3cc4nc(-c5cccc(F)c5F)nc-4cn3)on2)c(C(F)(F)F)c1 (stereo not shown) [Compound 173, dihydrochloride] :: 20
6. CCCOc1ccc(-c2cc(C(C(=O)OC(C)C)n3cc4nc(-c5cccc(F)c5F)nc-4cn3)on2)c(C(F)(F)F)c1 (stereo not shown) :: 30
7. CCCOc1ccc(-c2cc(C(C(=O)OCCOCCO)n3cc4nc(-c5cccc(F)c5F)nc-4cn3)on2)c(C(F)(F)F)c1 (stereo not shown) :: 7
8. CCCOc1ccc(-c2ncc(C(C(=O)OC)n3cc4nc(-c5cccc(F)c5F)nc-4cn3)cn2)c(C(F)(F)F)c1 (stereo not shown) :: 2600
9. CCCOc1ccc(-c2cc(C(C(=O)OCCCOS(=O)(=O)O)n3cc4nc(-c5cccc(F)c5F)nc-4cn3)on2)c(C(F)(F)F)c1 (stereo not shown) [Compound 15, sodium salt] :: 14
10. CCCOc1ccc(-c2cc(C(C(=O)OCCCO)n3cc4nc(-c5cccc(F)c5F)nc-4cn3)on2)c(C(F)(F)F)c1 (stereo not shown) :: 24
11. CCCOc1ccc(-c2ccc(C(C(=O)OC(C)C)n3cc4nc(-c5cccc(F)c5F)nc-4cn3)cn2)c(C(F)(F)F)c1 (stereo not shown) :: 980
12. CCCOc1ccc(-c2cc(C(C(=O)OC(C)(C)C)n3cc4nc(-c5cccc(F)c5F)nc-4cn3)on2)c(C(F)(F)F)c1 (stereo not shown) :: 65
13. CCCOc1ccc(-c2cc(C(C(=O)OCC)n3cc4nc(-c5cccc(F)c5F)nc-4cn3)on2)c(C(F)(F)F)c1 (stereo not shown) :: 12
14. CCCOc1ccc(-c2cc(C(C(=O)OCCOCCOCCOCCO)n3cc4nc(-c5cccc(F)c5F)nc-4cn3)on2)c(C(F)(F)F)c1 (stereo not shown) :: 17
15. CCCOc1ccc(-c2cc(C(C(=O)OC)n3cc4nc(-c5cccc(F)c5F)nc-4cn3)on2)c(C(F)(F)F)c1 (stereo not shown) :: 17
16. CCCOc1ccc(-c2ccc(C(C(=O)OC)n3cc4nc(-c5cccc(F)c5F)nc-4cn3)cn2)c(C(F)(F)F)c1 (stereo not shown) :: 9440
17. CCCOC(=O)C(c1ccc(-c2ccc(OCCC)cc2C(F)(F)F)nc1)n1cc2nc(-c3cccc(F)c3F)nc-2cn1 (stereo not shown) :: 900
18. CCCOc1ccc(-c2cc(C(C(=O)OCCOCCOC)n3cc4nc(-c5cccc(F)c5F)nc-4cn3)on2)c(C(F)(F)F)c1 (stereo not shown) :: 2
19. CCCOc1ccc(-c2cc(C(C(=O)NC)n3cc4nc(-c5cccc(F)c5F)nc-4cn3)on2)c(C(F)(F)F)c1 (stereo not shown) :: 920

###

Test system: HCV genotype 1b replicon (ET replicon)
Assay: microbe, parasite or virus in culture
Assay type: cell-based
Conditions: Hepatitis C virus; Table 3; luciferase activity after 48 hours; read-out: HCV Genotype 1B Replicon EC50
parameter: EC50

1. CCCOC(=O)C(c1cc(-c2ccc(C3CC3)cc2C(F)(F)F)no1)n1cc2nc(-c3cccc(F)c3F)nc-2cn1 (stereo not drawn) :: 13 nM
2. O=C(OCCCO)C(c1cc(-c2ccc(C3CC3)cc2C(F)(F)F)no1)n1cc2nc(-c3cccc(F)c3F)nc-2cn1 (stereo not drawn) :: 13 nM
3. CC(CO)(CO)COC(=O)C(c1cc(-c2ccc(C3CC3)cc2C(F)(F)F)no1)n1cc2nc(-c3cccc(F)c3F)nc-2cn1 (stereo not drawn) :: 8 nM

###

Test system: HCV genotype 1b replicon (ET replicon)
Assay: microbe, parasite or virus in culture
Type: cell-based
Conditions: Hepatitis C virus, 48 h, read-out: HCV Genotype 1B Replicon EC50 (nM)
Structures can show the parent of a compound that is named as a salt.
parameter: EC50 (nM)

1) CCCOc1ccc(-c2cc(C(C(=O)OCCCOP(=O)(O)O)n3cc4nc(-c5cccc(F)c5F)nc-4cn3)on2)c(C(F)(F)F)c1 (stereo not shown) [Compound 14, mono sodium salt] :: 3

###

System: HCV genotype 1b replicon (ET replicon)
Assay: microbe, parasite or virus in culture
Type: cell-based
Conditions: Hepatitis C virus; Table 3; luciferase activity after 48 hours; read-out: HCV Genotype 1B Replicon EC50
Experimental: Two cell lines were used for screening of compounds for inhibiting HCV RNA replication (genoytype 1a and 1b). Genotype la replicon cells, are a Huh-7 derived cell line bearing the genotype 1a H77NS3-5B bicistronic subgenomic replicon. See, Blight, et al., J. Virol. (2003) 77(5): 3181-3190. […] Luciferase activity was measured 48 hours later by adding a Steady glo (Promega, Madison, Wis.). […] Under the same condition, cytotoxicity of the compounds was determined using cell titer glo (Promega, Madison, Wis.). […]
pEC50: −log10 of the molar value.
parameter: pEC50

1. COC(=O)C(c1cc(-c2ccc(C3CC3)cc2C(F)(F)F)no1)n1cc2nc(-c3cccc(F)c3F)nc-2cn1 (stereo not drawn) :: 8.00
2. O=C(OCCCOP(=O)(O)O)C(c1cc(-c2ccc(C3CC3)cc2C(F)(F)F)no1)n1cc2nc(-c3cccc(F)c3F)nc-2cn1 (stereo not drawn) :: 8.00
3. O=C(OCCOCCO)C(c1cc(-c2ccc(C3CC3)cc2C(F)(F)F)no1)n1cc2nc(-c3cccc(F)c3F)nc-2cn1 (stereo not drawn) :: 7.89

###

Below: a set of entries, each annotated with reported CC50.
Experiment: in vitro
Assay type: cell-based
Settings: human; Table 3; cytotoxicity, cell titer glo, same condition as replicon assay; read-out: HCV Genotype 1B CC50
parameter: CC50 (µM)

1. O=C(OCCOCCO)C(c1cc(-c2ccc(C3CC3)cc2C(F)(F)F)no1)n1cc2nc(-c3cccc(F)c3F)nc-2cn1 (centres unmarked) :: 50
2. O=C(OCCCOP(=O)(O)O)C(c1cc(-c2ccc(C3CC3)cc2C(F)(F)F)no1)n1cc2nc(-c3cccc(F)c3F)nc-2cn1 (centres unmarked) :: 50
3. COC(=O)C(c1cc(-c2ccc(C3CC3)cc2C(F)(F)F)no1)n1cc2nc(-c3cccc(F)c3F)nc-2cn1 (centres unmarked) :: 25
4. CCCOC(=O)C(c1cc(-c2ccc(C3CC3)cc2C(F)(F)F)no1)n1cc2nc(-c3cccc(F)c3F)nc-2cn1 (centres unmarked) :: 25
